experiment: UV absorption in % at 300, 280 and 240 nm (Table 2); assay type: physicochemical; conditions: 280 nm
Measured UV Absorption in %, 280 nm of individual entries
Unit % implied. Number only.

See these solved cases before continuing.
Nc1nc2nc[nH]c2c(=O)[nH]1	62
Nc1ccc(C(=O)O)cc1	100
Nc1cc[nH]c(=O)n1	98
Nc1ncnc2nc[nH]c12	52
O=c1[nH]cnc2nc[nH]c12	65

-- ask Request the reported UV Absorption in %, 280 nm associated with `O=c1cc[nH]c(=O)[nH]1`
-- reply 45

-- ask Can you handle `Nc1ccn([C@@H]2O[C@H](COP(=O)(O)O)[C@@H](O)[C@H]2O)c(=O)n1` next?
-- reply 88

-- ask Thanks! And `Nc1cc(C(=O)O)c(O)c(S(=O)(=O)O)c1` ?
-- reply 0

-- ask Likewise for `O=c1ccn([C@@H]2O[C@H](COP(=O)(O)O)[C@@H](O)[C@H]2O)c(=O)[nH]1` ?
-- reply 55

-- ask Again, but for `O=C(O)c1ccccc1O`
-- reply 74

* * *

experiment: Solubility in water at 20°C (Table 3); format: physicochemical
reported.endpoint: solubility (µg/mL)
Give the value in µg/mL but do not write µg/mL after it.

// solved cases for solubility follow
O=c1cc[nH]c(=O)[nH]1	2000
Nc1cc[nH]c(=O)n1	4000

Let us examine a further case.
-- ask Please report the recorded solubility for `Nc1ncnc2nc[nH]c12` .
-- reply 840
